test: Induction of […] release in presence of glutathione in 0.1 M phosphate buffer at pH 7.4 at 37 degC by chemiluminescence assay; format: physicochemical
The following compounds are listed with their measured Activity values.

# compound-smiles, Activity [%]
rows = [
    ("CCSC(=O)N1CCN(/[N+]([O-])=N/Oc2ccc([N+](=O)[O-])cc2[N+](=O)[O-])CC1", 98),
    ("O=C(OCC(Cl)(Cl)Cl)N1CCN(/[N+]([O-])=N/Oc2ccc([N+](=O)[O-])cc2[N+](=O)[O-])CC1", 84),
    ("Cl.O=[N+]([O-])c1ccc(O/N=[N+](\\[O-])N2CCCNCC2)c([N+](=O)[O-])c1", 79),
    ("CCNC(=O)N1CCN(/[N+]([O-])=N/Oc2ccc([N+](=O)[O-])cc2[N+](=O)[O-])CC1", 74),
    ("C=COC(=O)N1CCCN(/[N+]([O-])=N/Oc2ccc([N+](=O)[O-])cc2[N+](=O)[O-])CC1", 93),
    ("CC(C)(C)OC(=O)N1CCCN(/[N+]([O-])=N/Oc2ccc([N+](=O)[O-])cc2[N+](=O)[O-])CC1", 90),
    ("C#CCOC(=O)N1CCN(/[N+]([O-])=N/Oc2ccc([N+](=O)[O-])cc2[N+](=O)[O-])CC1", 86),
    ("CCOC(=O)N1CCN(/[N+]([O-])=N/Oc2ccc([N+](=O)[O-])cc2[N+](=O)[O-])CC1", 85),
    ("C=COC(=O)N1CCN(/[N+]([O-])=N/Oc2ccc([N+](=O)[O-])cc2[N+](=O)[O-])CC1", 90),
    ("O=C(OCCF)N1CCN(/[N+]([O-])=N/Oc2ccc([N+](=O)[O-])cc2[N+](=O)[O-])CC1", 88),
    ("CCSC(=O)N1CCCN(/[N+]([O-])=N/Oc2ccc([N+](=O)[O-])cc2[N+](=O)[O-])CC1", 90),
    ("CCOP(=O)(OCC)N1CCN(/[N+]([O-])=N/Oc2ccc([N+](=O)[O-])cc2[N+](=O)[O-])CC1", 85),
]
